Recorded values, source ChEMBL document CHEMBL1122184.

Test system: Mus musculus
Experiment: In vivo activity of compound was measured against P388 lymphocytic leukemia at the dose of 1.56 mg/kg.
Format: functional
# T/C per record follows
Give just the number in %; leave the unit off.

Use these answered entries as a reference point.
{"columns": ["substance smiles", "tested on", "T/C (%)"],
 "data": [
  ["CC(C)NC(=O)OCc1c(COC(=O)NC(C)C)c(-c2ccc(Cl)c(Cl)c2)n2c1CCC2", "Mus musculus", 122],
  ["CNC(=O)OCc1c(COC(=O)NC)c(-c2ccc(F)cc2)n2c1CCC2", "Mus musculus", 122],
  ["CC(C)NC(=O)OCc1c(COC(=O)NC(C)C)c(-c2ccc(F)cc2F)n2c1CCC2", "Mus musculus", 142]
]}

With those in mind, consider the next compound.
Query string: Tell me the measured T/C of CC(C)NC(=O)OCc1c(COC(=O)NC(C)C)c(-c2ccc(F)c(F)c2)n2c1CCC2 , please.
Result string: 126
